TARGET OR SYSTEM: XIAP BIR2-3 (His-BIR2-3 (125-356, C202A/C213G, XIAP)) (Homo sapiens (Human), UniProt P98170, C202A/C213G)
Sequence (P98170 125-356 C202A/C213G): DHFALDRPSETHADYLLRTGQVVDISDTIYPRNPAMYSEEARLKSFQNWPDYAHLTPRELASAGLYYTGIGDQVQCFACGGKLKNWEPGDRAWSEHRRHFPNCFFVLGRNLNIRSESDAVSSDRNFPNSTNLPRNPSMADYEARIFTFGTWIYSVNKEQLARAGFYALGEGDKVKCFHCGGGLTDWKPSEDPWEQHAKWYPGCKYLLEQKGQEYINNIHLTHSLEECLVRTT
METHOD SUMMARY: XIAP-BIR2-3 Dimeric SMAC Peptide Homogeneous Time Resolved Fluorescence (HTRF) Assay
CONDITIONS USED: 0.5 nM N-His-BIR2-3, 20 nM fluorescein labeled dimeric SMAC peptide; read-out: XIAP BIR2-3 FRET IC50
I'd be grateful if you could share measured pIC50 for these entries.
One number for each entry, as −log10 of the molar value.

Here are 2 molecules together with their reported answers.
{"STRUCTURE STRING": "CN[C@@H](C)C(=O)N[C@H](C(=O)N1CC[C@@H]2[C@H]1C(=O)NC(=O)C[C@@H](Cc1ccc3ccccc3c1)C(=O)N[C@H](C(=O)O)Cc1ccc(cc1)OCc1cn(nn1)[C@@H]1CCN(C(=O)[C@@H](NC(=O)[C@H](C)NC)C(C)(C)C)[C@@H]1C(=O)N[C@@H](Cc1ccc3ccccc3c1)C(=O)N[C@H](c1n[nH]c(=O)o1)Cc1ccc(cc1)OCc1cn2nn1)C(C)(C)C", "pIC50": 8.89}
{"STRUCTURE STRING": "CN[C@@H](C)C(=O)N[C@H](C(=O)N1CC[C@H]2OCc3cn(nn3)CCC[C@H](C(=O)O)NC(=O)[C@H](Cc3ccc4ccccc4c3)NC(=O)[C@@H]3[C@@H](CCN3C(=O)[C@@H](NC(=O)[C@H](C)NC)C(C)(C)C)OCc3cn(nn3)CCC[C@H](C(=O)O)NC(=O)[C@H](Cc3ccc4ccccc4c3)NC(=O)[C@H]21)C(C)(C)C", "pIC50": 9.10}

In the following, a different molecule is considered.
Input: Which pIC50 is listed for CN[C@@H](C)C(=O)N[C@H](C(=O)N1CC[C@@H]2[C@H]1C(=O)N[C@@H](Cc1ccc3ccccc3c1)C(=O)N[C@H](C(=O)O)Cc1ccc(cc1)OCc1cn(nn1)[C@@H]1CCN(C(=O)[C@@H](NC(=O)[C@H](C)NC)C(C)(C)C)[C@@H]1C(=O)N[C@@H](Cc1ccc3ccccc3c1)C(=O)N[C@H](C(=O)NS(=O)(=O)c1ccccn1)Cc1ccc(cc1)OCc1cn2nn1)C(C)(C)C ?
Output: 7.77

----------
Exercise: state measured IC50 for each of the compounds provided.
TARGET OR SYSTEM: XIAP BIR2-3 (His-BIR2-3 (125-356, C202A/C213G, XIAP)) (Homo sapiens (Human), UniProt P98170, C202A/C213G)
METHOD SUMMARY: XIAP-BIR2-3 Dimeric SMAC Peptide Homogeneous Time Resolved Fluorescence (HTRF) Assay
CONDITIONS USED: 0.5 nM N-His-BIR2-3, 20 nM fluorescein labeled dimeric SMAC peptide; read-out: XIAP BIR2-3 FRET IC50
Quote the value and follow it with the unit of measurement.

Please review the entries below; each comes with its answer.
{"COMPOUND": "CN[C@@H](C)C(=O)N[C@H](C(=O)N1CC[C@@H]2[C@H]1C(=O)N[C@@H](Cc1ccc3ccccc3c1)C(=O)N[C@H](C(=O)O)Cc1ccc(cc1)OCc1cn(nn1)[C@@H]1CCN(C(=O)[C@@H](NC(=O)[C@H](C)NC)C(C)(C)C)[C@@H]1C(=O)N[C@@H](Cc1ccc3ccccc3c1)C(=O)N[C@H](c1nnn[nH]1)Cc1ccc(cc1)OCc1cn2nn1)C(C)(C)C (single isomer, unassigned) [Example 16]", "IC50": "2.2 nM"}
{"COMPOUND": "CN[C@@H](C)C(=O)N[C@H](C(=O)N1CC[C@@H]2[C@H]1C(=O)N[C@@H](Cc1ccc3ccccc3c1)C(=O)N[C@H](C(=O)O)Cc1ccc(cc1)OCc1cn(nn1)[C@@H]1CCN(C(=O)[C@@H](NC(=O)[C@H](C)NC)C(C)(C)C)[C@@H]1C(=O)N[C@@H](Cc1ccc3ccccc3c1)C(=O)N[C@H](C(=O)O)c1ccc(cc1)OCc1cn2nn1)C(C)(C)C [Example 1]", "IC50": "1.1 nM"}

Provide IC50 values for the following items, in order.
1. CN[C@@H](C)C(=O)N[C@H](C(=O)N1CC[C@@H]2[C@H]1C(=O)N[C@@H](Cc1ccc3ccccc3c1)C(=O)N[C@H](C(=O)O)Cc1ccc(cc1)OCc1cn(nn1)[C@@H]1CCN(C(=O)[C@@H](NC(=O)[C@H](C)NC)C(C)(C)C)[C@@H]1C(=O)N[C@@H](Cc1ccc3ccccc3c1)C(=O)N[C@H](C(=O)NS(=O)(=O)C1CC1)Cc1ccc(cc1)OCc1cn2nn1)C(C)(C)C [Example 11]
2. CN[C@@H](C)C(=O)N[C@H](C(=O)N1CC[C@@H]2[C@H]1C(=O)N[C@@H](Cc1ccc3ccccc3c1)C(=O)N[C@H](C(=O)O)Cc1ccc(cc1)OCc1cn(nn1)[C@@H]1CCN(C(=O)[C@@H](NC(=O)[C@H](C)NC)C(C)(C)C)[C@@H]1C(=O)N[C@@H](Cc1ccc3ccccc3c1)C(=O)N[C@H](c1nnn[nH]1)Cc1ccc(cc1)OCc1cn2nn1)C(C)(C)C (single isomer, unassigned) [Example 15]
3. CN[C@@H](C)C(=O)N[C@H](C(=O)N1CC[C@@H]2[C@H]1C(=O)N[C@@H](Cc1ccc3ccccc3c1)C(=O)N[C@H](C(=O)O)Cc1ccc(cc1)OCc1cn(nn1)[C@@H]1CCN(C(=O)[C@@H](NC(=O)[C@H](C)NC)C(C)(C)C)[C@@H]1C(=O)N[C@@H](Cc1ccc3ccccc3c1)C(=O)N[C@H](c1nc(=O)o[nH]1)Cc1ccc(cc1)OCc1cn2nn1)C(C)(C)C [Example 20]

Output:
1: 1.3 nM; 2: 0.3 nM; 3: 2.9 nM

I have 3 compounds here; please give me IC50 for each one.
1. CN[C@@H](C)C(=O)N[C@H](C(=O)N1CC[C@@H]2[C@H]1C(=O)N[C@@H](Cc1ccc3ccccc3c1)C(=O)N[C@H](C(=O)O)Cc1ccc(cc1)OCc1cn(nn1)[C@@H]1CCN(C(=O)[C@@H](NC(=O)[C@H](C)NC)C(C)(C)C)[C@@H]1C(=O)N[C@@H](Cc1ccc3ccccc3c1)C(=O)N[C@H](c1nc(=S)o[nH]1)Cc1ccc(cc1)OCc1cn2nn1)C(C)(C)C [Example 18]
2. CN[C@@H](C)C(=O)N[C@H](C(=O)N1CC[C@@H]2[C@H]1[C@@H](Cc1ccc3ccccc3c1)C(=O)N[C@H](C(=O)O)Cc1ccc(cc1)OCc1cn(nn1)[C@@H]1CCN(C(=O)[C@@H](NC(=O)[C@H](C)NC)C(C)(C)C)[C@@H]1C(=O)C[C@@H](Cc1ccc3ccccc3c1)C(=O)N[C@H](C(=O)OC)Cc1ccc(cc1)OCc1cn2nn1)C(C)(C)C [Example 7]
3. CN[C@@H](C)C(=O)N[C@H](C(=O)N1CC[C@@H]2[C@H]1C(=O)N[C@@H](Cc1ccc3ccccc3c1)C(=O)N[C@H](C(=O)O)Cc1ccc(cc1)OCc1cn(nn1)[C@@H]1CCN(C(=O)[C@@H](NC(=O)[C@H](C)NC)C(C)(C)C)[C@@H]1C(=O)N[C@@H](Cc1ccc3ccccc3c1)C(=O)N[C@H](c1nc(=S)o[nH]1)Cc1ccc(cc1)OCc1cn2nn1)C(C)(C)C [Example 17]

Output:
2.2 nM
6.5 nM
0.8 nM

I would be grateful if you could provide IC50 for each of the following entries.
1. CN[C@@H](C)C(=O)N[C@H](C(=O)N1CC[C@H]2OCc3cn(nn3)[C@H](C(=O)O)CCNC(=O)[C@H](Cc3ccc4ccccc4c3)NC(=O)[C@@H]3[C@@H](CCN3C(=O)[C@@H](NC(=O)[C@H](C)NC)C(C)(C)C)OCc3cn(nn3)[C@H](C(=O)O)CCNC(=O)[C@H](Cc3ccc4ccccc4c3)NC(=O)[C@H]21)C(C)(C)C [Example 4]
2. CN[C@@H](C)C(=O)N[C@H](C(=O)N1CC[C@@H]2[C@H]1C(=O)N[C@@H](Cc1ccc3ccccc3c1)C(=O)N[C@H](C(=O)O)Cc1ccc(cc1)OCc1cn(nn1)[C@@H]1CCN(C(=O)[C@@H](NC(=O)[C@H](C)NC)C(C)(C)C)[C@@H]1C(=O)N[C@@H](Cc1ccc3ccccc3c1)C(=O)N[C@H](c1nc(=O)o[nH]1)Cc1ccc(cc1)OCc1cn2nn1)C(C)(C)C [Example 19]

Output:
1: 1.6 nM; 2: 0.4 nM
